All figures here come from patent US20160046618A1.

EXPERIMENTAL SYSTEM: human recombinant BACE2 (Homo sapiens (Human))
ASSAY METHOD TEXT: In vitro enzymatic BACE2 FRET assay
Type: biochemical
ASSAY CONTEXT: read-out: IC50 IP (μM) BACE2 enzyme
RECORDED METRIC: IC50 (µM)

The cases that follow already have their IC50 on record.
C#CCOc1cnc2c(Nc3cc(F)c(F)c([C@@]4(C)N=C(N)S[C@@]5(COC)C[C@H]54)c3)nccc2c1
0.0642
CC#CCCOc1cnc(C(=O)Nc2cc(F)c(F)c([C@@]3(C)N=C(N)S[C@@]4(COC)C[C@H]43)c2)cn1
0.069

[1] Cc1nc(COc2cnc3c(Nc4cc(F)c(F)c([C@@]5(C)N=C(N)S[C@@]6(C(F)F)C[C@@H]56)c4)nccc3n2)c(C)o1
[2] CCNC(=O)[C@]12C[C@H]1[C@@](C)(c1cc(NC(=O)c3cnc(OCC(F)(F)F)cn3)ccc1F)N=C(N)S2
[3] COC[C@]12C[C@H]1[C@@](C)(c1cc(NC(=O)c3cnc(O[C@H](C)C(F)(F)F)cn3)ccc1F)N=C(N)S2 (single isomer, unassigned)
[4] COC[C@]12C[C@H]1[C@@](C)(c1cc(Nc3ncnc4cc(OCc5nc(C)oc5C)cnc34)cc(F)c1F)N=C(N)S2
stdin: Please list the entries, largest IC50 first. Your answer should be the labels, listed in the requested order.
stdout: 3, 4, 2, 1

---

EXPERIMENTAL SYSTEM: Recombinant Cat D (Homo sapiens (Human), UniProt P07339)
Sequence (P07339 65-412): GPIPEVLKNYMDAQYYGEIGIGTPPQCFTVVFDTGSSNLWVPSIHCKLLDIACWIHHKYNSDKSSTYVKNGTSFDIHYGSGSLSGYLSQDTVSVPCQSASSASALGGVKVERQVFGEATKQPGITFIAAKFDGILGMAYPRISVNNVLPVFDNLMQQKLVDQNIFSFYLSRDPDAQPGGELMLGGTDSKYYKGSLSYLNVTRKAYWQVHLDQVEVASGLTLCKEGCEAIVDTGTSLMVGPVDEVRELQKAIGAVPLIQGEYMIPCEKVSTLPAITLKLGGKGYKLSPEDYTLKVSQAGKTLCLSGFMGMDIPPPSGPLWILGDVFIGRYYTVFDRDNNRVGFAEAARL
ASSAY METHOD TEXT: In vitro enzymatic Cathepsin D (Cat D) FRET assay
Assay type: biochemical
ASSAY CONTEXT: read-out: IC50 IP (μM) CatD
RECORDED METRIC: IC50 (µM)

The cases that follow already have their IC50 on record.
C#CCOc1cnc(C(=O)Nc2ccc(F)c([C@@]3(C)N=C(N)S[C@@]4(C#N)C[C@H]43)c2)cn1
126
[2H]C([2H])([2H])C#CC([2H])([2H])Oc1cnc2c(Nc3cnc(F)c([C@@]4(C)N=C(N)S[C@@]5(CF)C[C@H]54)c3)nccc2n1
709

[a] COC[C@]12C[C@H]1[C@@](C)(c1cc(NC(=O)c3cnc(OCC4CCC4)cn3)cc(F)c1F)N=C(N)S2
[b] CN(C)C(=O)COc1cnc2c(Nc3cc(F)c(F)c([C@@]4(C)N=C(N)S[C@@]5(C(F)F)C[C@@H]45)c3)nccc2n1
stdin: Endpoint returns whichever of a and b has the numerically higher IC50. // respond with label for picked entry
stdout: a

---

EXPERIMENTAL SYSTEM: human recombinant BACE2 (Homo sapiens (Human), UniProt Q9Y5Z0)
Sequence (Q9Y5Z0 63-518): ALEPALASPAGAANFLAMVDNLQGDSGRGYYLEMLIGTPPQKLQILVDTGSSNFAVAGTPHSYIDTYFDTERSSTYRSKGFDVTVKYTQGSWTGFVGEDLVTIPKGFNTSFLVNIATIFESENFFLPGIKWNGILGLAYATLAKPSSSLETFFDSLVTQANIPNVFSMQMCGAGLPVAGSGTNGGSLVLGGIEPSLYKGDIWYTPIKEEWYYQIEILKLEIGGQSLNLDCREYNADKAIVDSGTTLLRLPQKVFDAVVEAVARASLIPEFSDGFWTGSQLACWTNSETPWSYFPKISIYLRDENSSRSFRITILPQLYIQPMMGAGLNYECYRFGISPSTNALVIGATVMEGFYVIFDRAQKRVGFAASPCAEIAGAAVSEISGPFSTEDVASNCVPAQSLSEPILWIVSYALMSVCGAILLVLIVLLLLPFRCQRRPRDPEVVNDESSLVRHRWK
ASSAY METHOD TEXT: In vitro enzymatic BACE2 FRET assay
Assay type: biochemical
ASSAY CONTEXT: read-out: IC50 IP (μM) BACE2 enzyme
RECORDED METRIC: IC50 (µM)

The cases that follow already have their IC50 on record.
COC[C@]12C[C@H]1[C@@](C)(c1cc(NC(=O)c3cnc(OCC4CCO4)cn3)ccc1F)N=C(N)S2 (stereo partly drawn)
0.498
COC[C@]12C[C@H]1[C@@](C)(c1cc(NC(=O)c3cnc(OCC(F)F)cn3)cc(F)c1F)N=C(N)S2
0.13

[a] COC[C@]12C[C@H]1[C@@](C)(c1cc(NC(=O)c3cnc(O[C@@H](C)C(F)(F)F)cn3)ccc1F)N=C(N)S2 (single isomer, unassigned)
[b] CN(C)C(=O)COc1cnc2c(Nc3cc(F)c(F)c([C@@]4(C)N=C(N)S[C@@]5(C(F)F)C[C@@H]45)c3)nccc2n1
[c] COC[C@]12C[C@H]1[C@@](C)(c1cc(NC(=O)c3cnc(OCC4(C)CC4)cn3)ccc1F)N=C(N)S2
stdin: Please list the entries, largest IC50 first. Your answer should be the labels, listed in the requested order.
stdout: a, b, c
